Test: chemical genetic growth profiling, strain panel (AID 1159580);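 also: tested at 20 µM; growth read once vehicle control cultures reached saturation at 30 °C; 1 = growth at the plate median or of vehicle wells; lower values mean less growth of the strain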
Conditions: S. cerevisiae deletion strains, growth OD, locus YGR078C, strain PAC10, hits give low values
Hit rate of the full screen: of about 5,500 compounds, about 2,000 (36%) were called active. Inconclusive results (about 18%) are left out. The list shows a part of the results.
normalized growth values for the compounds below.
// return just the number, without any unit appended

# CHEM SMILES, normalized growth
measured = [
    ("Clc1ccc(Cl)cc1", 1.02),
    ("CSC(=NCc1cccnc1)NC#N", 1),
]

query: Would you mind telling me what normalized growth value was observed for "C=CCn1c(Sc2ncc([N+](=O)[O-])s2)n[nH]c1=O" ?
result: 0.944

====

Assay: chemical genetic growth profiling, strain panel (AID 1159580);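 also: tested at 20 µM; growth read once vehicle control cultures reached saturation at 30 °C; 1 = growth at the plate median or of vehicle wells; lower values mean less growth of the strain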
Settings: S. cerevisiae deletion strains, growth OD, locus YBR229C, strain ROT2, hits give low values
Hit rate of the full screen: of about 5,500 compounds, about 2,000 (36%) were called active. Roughly 18% stayed inconclusive and do not appear here. The list shows a part of the results.
normalized growth values for the compounds below.
// return just the number, without any unit appended

In the examples that follow, each entry is paired with its recorded normalized growth.
# CHEM SMILES, REPORTED MEASUREMENT
data = [
    ("Cc1ccc(C(=O)c2ccccc2[N+](=O)[O-])cc1", 0.99),
    ("O=C1c2c(O)ccc(O)c2C(=O)c2c(NCCNCCO)ccc(NCCNCCO)c21", 1.03),
    ("CC1=CCc2c(cc3oc(C)cc(=O)c3c2O)OC1", 0.98),
]

query: Would you mind telling me what normalized growth value was observed for "NS(=O)(=O)c1cc2c(cc1C(F)(F)F)NCNS2(=O)=O" ?
result: 1.02

====

Experiment: chemical genetic growth profiling, strain panel (AID 1159580);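 also: tested at 20 µM; growth read once vehicle control cultures reached saturation at 30 °C; 1 = growth at the plate median or of vehicle wells; lower values mean less growth of the strain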
Conditions: S. cerevisiae deletion strains, growth OD, locus YAL021C, strain ccr4, hits give low values
About 2,000 (36%) of roughly 5,500 compounds were called active. Inconclusive results (about 18%) are left out. The list shows a part of the results.
normalized growth values for the compounds below.
// return just the number, without any unit appended

In the examples that follow, each entry is paired with its recorded normalized growth.
# COMPOUND, REPORTED MEASUREMENT
data = [
    ("COc1cc([C@@H]2c3cc4c(cc3[C@H](O)[C@H]3COC(=O)[C@@H]23)OCO4)cc(OC)c1OC", 1),
    ("N[C@H](CO)Cc1ccccc1", 1.01),
    ("FC(F)(F)C(Cl)Br (stereo unspecified)", 1.02),
    ("OC1C(O)C(O)C(O)C(O)C1O (stereo unspecified)", 0.996),
    ("COc1cc([C@@H]2c3cc4c(cc3[C@H](OC(C)=O)[C@H]3COC(=O)[C@H]23)OCO4)cc(OC)c1OC", 0.992),
    ("ClC(Cl)=C(c1ccc(Cl)cc1)c1ccc(Cl)cc1", 0.995),
    ("COc1c2c(cc3c1OCO3)CC[N+](C)=C2", 0.977),
    ("CN(C)CC/C=C1/c2ccccc2COc2ccccc21", 0.99),
    ("COc1cc2c(cc1OC)-c1cc3ccc(OC)c(OC)c3c[n+]1CC2", 0.988),
    ("CC(=O)O[C@H]1C[C@@H](O)C(C)(C)C2C[C@@H](OC(C)=O)[C@]3(C)C(CC[C@@]4(C)[C@H](c5ccoc5)OC(=O)C5OC543)[C@]21C (stereo partly specified)", 1.02),
]

query: Would you mind telling me what normalized growth value was observed for CC(=O)O[C@@H]1CC2C(C)(C)CCC(=O)[C@]2(C)C2CC[C@@]3(C)[C@H](c4ccoc4)OC(=O)C4OC43[C@@]21C (stereo partly specified) ?
result: 0.98

query: Would you mind telling me what normalized growth value was observed for "N[C@@H]1CONC1=O" ?
result: 0.982

query: Would you mind telling me what normalized growth value was observed for "O=c1cc(-c2ccc(O)c(O)c2)oc2ccccc12" ?
result: 0.999

query: Would you mind telling me what normalized growth value was observed for CC(=O)[C@H]1CCC2C3CC=C4C[C@@H](OC(=O)CCC(=O)O)CC[C@]4(C)C3CC[C@@]21C (stereo partly specified) ?
result: 0.975

query: Would you mind telling me what normalized growth value was observed for "Cc1cc2cc3c(C)cc(=O)oc3c(C)c2o1" ?
result: 0.992

query: Would you mind telling me what normalized growth value was observed for "COc1c(O)cccc1O" ?
result: 0.997

query: Would you mind telling me what normalized growth value was observed for "Nc1nnc(-c2cccc(Cl)c2Cl)c(N)n1" ?
result: 1.01

query: Would you mind telling me what normalized growth value was observed for "O=C1CN2Cc3c(ccc(Cl)c3Cl)N=C2N1" ?
result: 0.988

query: Would you mind telling me what normalized growth value was observed for "O=c1cc(-c2ccc(O)cc2)oc2ccc(O)cc12" ?
result: 0.99

query: Would you mind telling me what normalized growth value was observed for CC(=O)O[C@@H]1CC2C(C)(C)C(=O)CC[C@]2(C)C2CC[C@@]3(C)[C@H](c4ccoc4)OC(=O)C4OC43[C@@]21C (stereo partly specified) ?
result: 1.01

query: Would you mind telling me what normalized growth value was observed for "O=C(O)/C=C(\CC(=O)O)C(=O)O" ?
result: 0.998

query: Would you mind telling me what normalized growth value was observed for "O=C(O)c1nc2cc(Cl)c(Cl)cc2[nH]c1=O" ?
result: 0.995

query: Would you mind telling me what normalized growth value was observed for "COc1c(O)cc2c(-c3ccccc3)cc(=O)oc2c1OC" ?
result: 0.994

query: Would you mind telling me what normalized growth value was observed for C=C1C(N)CC2CC1C2(C)C (stereo unspecified) ?
result: 1.01

query: Would you mind telling me what normalized growth value was observed for "NCCc1ccc(O)cc1" ?
result: 0.995

query: Would you mind telling me what normalized growth value was observed for "COc1cc2c3cc1Oc1cc(ccc1O)C[C@@H]1c4c(cc(OC)c(O)c4Oc4ccc(cc4)C[C@@H]3N(C)CC2)CC[N+]1(C)C" ?
result: 1
